Settings: High dose (1000 mg/kg bw); urine; mean ± SD
Counter-ions that a name gives are not always drawn.
Classes by Cmax (nmol excreted): LOW: < 0.9 nmol excreted; MID: ≥ 0.9 nmol excreted and < 10 nmol excreted; HIGH: ≥ 10 nmol excreted

# compound, group
data = [
    ("COc1cc(-c2[o+]c3cc(O)cc(O)c3cc2OC2OC(CO)C(O)C(O)C2O)cc(O)c1O (stereo not drawn) [Petunidin Galactoside, petunidin-3-O-galactoside]", "MID"),
    ("O=C(O)Cc1ccc(O)cc1 [4-OH-PAA, 4-hydroxyphenylacetic acid]", "LOW"),
    ("O=C(O)/C=C/c1ccc(O)c(O)c1", "MID"),
    ("O=c1c(O)c(-c2ccc(O)c(O)c2)oc2cc(O)cc(O)c12", "HIGH"),
    ("O=C(O)[C@H]1O[C@@H](Oc2c(-c3ccc(O)c(O)c3)oc3cc(O)cc(O)c3c2=O)[C@H](O)[C@@H](O)[C@@H]1O [Quercetin glucuronide, quercetin-3-O-glucuronide]", "MID"),
    ("OC[C@H]1O[C@@H](Oc2cc3c(O)cc(O)cc3[o+]c2-c2ccc(O)c(O)c2)[C@H](O)[C@@H](O)[C@H]1O [Cyanidin Galactoside]", "LOW"),
    ("COc1cc(/C=C/C(=O)O)ccc1OS(=O)(=O)O [Ferulic acid sulfate]", "HIGH"),
    ("O=C(/C=C/c1ccc(O)c(O)c1)O[C@@H]1C[C@](O)(C(=O)O)C[C@@H](O)[C@H]1O", "HIGH"),
]

Which class does OC[C@H]1O[C@@H](Oc2cc3c(O)cc(O)cc3[o+]c2-c2cc(O)c(O)c(O)c2)[C@H](O)[C@@H](O)[C@@H]1O [Delphinidin Glucoside, delphindin-3-O-glucoside] fall in?
MID

Which class does OC[C@H]1O[C@@H](Oc2cc3c(O)cc(O)cc3[o+]c2-c2ccc(O)c(O)c2)[C@H](O)[C@@H](O)[C@@H]1O [Cyanidin Glucoside, cyanidin-3-O-glucoside] fall in?
LOW

Which class does COc1cc(-c2[o+]c3cc(O)cc(O)c3cc2O[C@@H]2O[C@H](CO)[C@@H](O)[C@H](O)[C@H]2O)cc(O)c1O [Petunidin Glucoside, petunidin-3-O-glucoside] fall in?
MID

Which class does COc1cc(-c2[o+]c3cc(O)cc(O)c3cc2O[C@@H]2O[C@H](CO)[C@@H](O)[C@H](O)[C@H]2O)cc(OC)c1O [Malvidin Glucoside, malvidin-3-O-glucoside] fall in?
HIGH

###

Conditions: female, Sprague Dawley, rat, plasma, po, 75 mg/kg
Entries and their AUC values follow.
A number alone suffices; assume µM·h.

# compound, AUC, µM·h
measured = [
    ("O=C(O)[C@H]1O[C@@H](Oc2c(-c3ccc(O)c(O)c3)oc3cc(O)cc(O)c3c2=O)[C@H](O)[C@@H](O)[C@@H]1O [Quercetin glucuronide, quercetin-3-O-glucuronide]", 0.32),
]

Turning now to a further compound:
Any idea what AUC was measured for O=C(O)CNC(=O)c1ccccc1 [Hippuric acid, hippuric acid] ?
25.8

###

Conditions: female, Sprague Dawley, rat, urine, po, 1000 mg/kg
Entries and their Tmax values follow.

Here's what some known entries look like.
# compound, Tmax
data = [
    ("O=C(O)/C=C/c1ccc(O)c(O)c1 [Caffeic acid, caffeic acid]", "0 to 12 h"),
    ("O=C(/C=C/c1ccc(O)c(O)c1)O[C@@H]1C[C@](O)(C(=O)O)C[C@@H](O)[C@H]1O [Chlorogenic acid, chlorogenic acid]", "0 to 12 h"),
    ("COc1cc(C(=O)O)cc(OC)c1O [Syringic acid, syringic acid]", "0 to 12 h"),
    ("O=c1c(O)c(-c2ccc(O)c(O)c2)oc2cc(O)cc(O)c12 [Quercetin, quercetin]", "0 to 12 h"),
    ("O=C(O)[C@H]1O[C@@H](Oc2c(-c3ccc(O)c(O)c3)oc3cc(O)cc(O)c3c2=O)[C@H](O)[C@@H](O)[C@@H]1O [Quercetin glucuronide, quercetin-3-O-glucuronide]", "0 to 12 h"),
]

Any idea what Tmax was measured for O=C(O)CNC(=O)c1ccccc1 [Hippuric acid, hippuric acid] ?
12 to 24 h

Any idea what Tmax was measured for O=C(O)Cc1ccc(O)cc1 [4-OH-PAA, 4-hydroxyphenylacetic acid] ?
0 to 24 h

Any idea what Tmax was measured for O=C(O)CNC(=O)c1cccc(O)c1 [3-OH-hippuric acid, 3-hydroxyhippuric acid] ?
12 to 24 h

Ref: paper PMC9558423
